These measurements were taken from paper PMC5540273.

- Test system: IRAK1;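 note: KINOMEscan kinase panel screen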
- Conditions used: concentration: 1 μM,replicates: in singlicate; n = 1
Measurement label: %Inh (%)

Compound | Uom | Reported value
O=C(NCCNc1ccnc(NCc2ccc(F)cc2)n1)c1cc2ccccc2s1 | % | 83
NC(=O)c1cc(-c2ccccc2)cc2c(C3CCNCC3)c[nH]c12 | % | 35
CNC(=O)c1ccccc1Sc1ccc2c(/C=C/c3ccccn3)n[nH]c2c1 | % | 0
Cl.Oc1cc(-c2nc(-c3ccccc3)[nH]c2-c2ccncc2)ccc1Cl | % | 0
CC(C)N1C(=O)Cc2cc(Nc3ncc(C(F)(F)F)c(NCc4cccc(S(C)(=O)=O)c4)n3)ccc21 | % | 37
CN(C)CC(O)COc1ccc(Nc2nccc(-c3cnn4nc(N5CCOCC5)ccc34)n2)cc1 (centres unmarked) | % | 99.9
Cl.Cl.NC[C@H](Cc1ccc(C(F)(F)F)cc1)NC(=O)c1cc(Br)c(-c2ccnc3[nH]ccc23)s1 | % | 40
CN(C)CCOc1ccc(-c2cc(-c3c[nH]nc3-c3ccccn3)ccn2)cc1 | % | 9
